Target: murine SR-BI (Mus musculus, UniProt Q61009)
Construct: expressed in transfected cells; host or cells: ldlA-7 (LDL receptor deficient Chinese hamster ovary cells)
Sequence (Q61009 whole entry): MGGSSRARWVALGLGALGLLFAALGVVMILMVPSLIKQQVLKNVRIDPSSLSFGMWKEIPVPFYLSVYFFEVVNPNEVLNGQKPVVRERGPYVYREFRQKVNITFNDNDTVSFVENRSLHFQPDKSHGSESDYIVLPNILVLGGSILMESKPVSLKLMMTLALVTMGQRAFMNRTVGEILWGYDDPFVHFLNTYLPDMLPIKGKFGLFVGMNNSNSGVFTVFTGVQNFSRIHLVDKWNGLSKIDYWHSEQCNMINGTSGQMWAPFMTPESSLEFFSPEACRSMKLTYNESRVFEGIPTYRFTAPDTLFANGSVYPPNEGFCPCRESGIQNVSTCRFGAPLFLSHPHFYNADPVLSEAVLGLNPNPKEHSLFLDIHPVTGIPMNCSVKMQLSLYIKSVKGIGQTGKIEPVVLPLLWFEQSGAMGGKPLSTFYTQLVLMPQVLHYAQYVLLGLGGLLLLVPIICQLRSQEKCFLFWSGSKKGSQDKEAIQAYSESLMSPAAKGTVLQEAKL
Test: Uptake of DiI from DiI-HDL by ldlA[mSR-BI] cells (high throughput screen and concentration dependence)
Assay type: cell-based
Details: Test 1
Recorded ENDOHDL Test 1, one value per entry.

{"columns": ["compound", "ENDOHDL Test 1"],
 "data": [
  ["Cc1ccc(C(C)C)c(OCC(=O)Nc2cc([N+](=O)[O-])ccc2C)c1 [MIT 9952-153]", 0.6],
  ["O=C(Nc1cc2c(cc1C(=O)c1ccccc1)OCCO2)c1ccc(Br)cc1 [MIT 9952-188]", 0.61],
  ["CCn1c2ccccc2c2cc(/C=N/NC(N)=S)ccc21 [MIT 9952-211]", 0.59]
]}

Reference for the values: patent US20040171073A1
